Assay: Solubility of fluticasone propionate in FDA-approved solvents and excipients (RP-HPLC at 239 nm)
Type: physicochemical
Conditions: oleic acid, 25 °C, oil or lipid, thermodynamic from solid, in oleic acid; overnight at 25 degrees centigrade; read-out: Solubility
Readout: solubility (µg/mL)
Reply numerically in µg/mL, unit not repeated.

Lookup: Give its solubility value. Item: CCC(=O)O[C@]1(C(=O)SCF)[C@H](C)C[C@H]2[C@@H]3C[C@H](F)C4=CC(=O)C=C[C@]4(C)[C@@]3(F)[C@@H](O)C[C@@]21C [fluticasone propionate]
Found: 13.6

----------
Assay: Solubility of fluticasone propionate in FDA-approved solvents and excipients (RP-HPLC at 239 nm)
Type: physicochemical
Conditions: Castor oil, 25 °C, oil or lipid, thermodynamic from solid, in Castor oil; overnight at 25 degrees centigrade; read-out: Solubility
Readout: solubility (µg/mL)
Reply numerically in µg/mL, unit not repeated.

Lookup: Give its solubility value. Item: CCC(=O)O[C@]1(C(=O)SCF)[C@H](C)C[C@H]2[C@@H]3C[C@H](F)C4=CC(=O)C=C[C@]4(C)[C@@]3(F)[C@@H](O)C[C@@]21C [fluticasone propionate]
Found: 18

----------
Test: Solubility of fluticasone propionate in FDA-approved solvents and excipients (RP-HPLC at 239 nm)
Type: physicochemical
Settings: Acetone, 25 °C, organic solvent or mixture, thermodynamic from solid, in Acetone; overnight at 25 degrees centigrade; read-out: Solubility
Readout: solubility (mg/mL)
Reply numerically in mg/mL, unit not repeated.

Lookup: Give its solubility value. Item: CCC(=O)O[C@]1(C(=O)SCF)[C@H](C)C[C@H]2[C@@H]3C[C@H](F)C4=CC(=O)C=C[C@]4(C)[C@@]3(F)[C@@H](O)C[C@@]21C [fluticasone propionate]
Found: 63

----------
Test: Solubility of fluticasone propionate in FDA-approved solvents and excipients (RP-HPLC at 239 nm)
Type: physicochemical
Conditions: Polysorbate 20, 25 °C, aqueous with cosolvent or surfactant or cyclodextrin, thermodynamic from solid, in Polysorbate 20; overnight at 25 degrees centigrade; read-out: Solubility
Readout: solubility (µg/mL)
Reply numerically in µg/mL, unit not repeated.

Lookup: Give its solubility value. Item: CCC(=O)O[C@]1(C(=O)SCF)[C@H](C)C[C@H]2[C@@H]3C[C@H](F)C4=CC(=O)C=C[C@]4(C)[C@@]3(F)[C@@H](O)C[C@@]21C [fluticasone propionate]
Found: 7060

----------
Assay: Solubility of fluticasone propionate in FDA-approved solvents and excipients (RP-HPLC at 239 nm)
Format: physicochemical
Details: PEG 400, 25 °C, organic solvent or mixture, thermodynamic from solid, in PEG 400; overnight at 25 degrees centigrade; read-out: Solubility
Readout: solubility (µg/mL)
Reply numerically in µg/mL, unit not repeated.

Lookup: Give its solubility value. Item: CCC(=O)O[C@]1(C(=O)SCF)[C@H](C)C[C@H]2[C@@H]3C[C@H](F)C4=CC(=O)C=C[C@]4(C)[C@@]3(F)[C@@H](O)C[C@@]21C [fluticasone propionate]
Found: 4330

----------
Assay: Solubility of fluticasone propionate in FDA-approved solvents and excipients (RP-HPLC at 239 nm)
Type: physicochemical
Conditions: Polysorbate 60, 25 °C, aqueous with cosolvent or surfactant or cyclodextrin, thermodynamic from solid, in Polysorbate 60; overnight at 25 degrees centigrade; read-out: Solubility
Readout: solubility (µg/mL)
Reply numerically in µg/mL, unit not repeated.

Lookup: Give its solubility value. Item: CCC(=O)O[C@]1(C(=O)SCF)[C@H](C)C[C@H]2[C@@H]3C[C@H](F)C4=CC(=O)C=C[C@]4(C)[C@@]3(F)[C@@H](O)C[C@@]21C [fluticasone propionate]
Found: 4910
